- ASSAY_OVERVIEW: Displacement of [3H]KA from KA receptor in Sprague-Dawley rat brain synaptic membrane
MEASUREMENT_TYPE: pIC50

INSERT INTO assay_data (compound, measurement_type, measured_number) VALUES
  ('N[C@@H](CCC(=O)N1C[C@@H]2C(C(=O)O)=NO[C@@H]2C1)C(=O)O (single isomer, unassigned)', 'pIC50', 4.39),
  ('N[C@@H](CCC(=O)N1C[C@@H]2ON=C(O)[C@@H]2C1)C(=O)O', 'pIC50', 4.43),
  ('N[C@@H](CCC(=O)N1C[C@@H]2ON=C(C(=O)O)[C@@H]2C1)C(=O)O', 'pIC50', 4.2),
  ('N[C@H](CCC(=O)N1C[C@@H]2ON=C(C(=O)O)[C@@H]2C1)C(=O)O (single isomer, unassigned)', 'pIC50', 4.25),
  ('N[C@@H](CCC(=O)N1C[C@@H]2C(O)=NO[C@@H]2C1)C(=O)O (single isomer, unassigned)', 'pIC50', 4.23);

###

- ASSAYED_TARGET: Glutamate NMDA receptor
- ASSAY_OVERVIEW: Displacement of [3H]CGP39653 from NMDA receptor in Sprague-Dawley rat brain synaptic membrane
MEASUREMENT_TYPE: pKi

INSERT INTO results (compound, measurement_type, measured_number) VALUES
  ('N[C@@H](CCC(=O)N1C[C@@H]2C(O)=NO[C@@H]2C1)C(=O)O (single isomer, unassigned)', 'pKi', 4.41),
  ('N[C@@H](CCC(=O)N1C[C@@H]2ON=C(C(=O)O)[C@@H]2C1)C(=O)O', 'pKi', 4.64),
  ('N[C@H](CCC(=O)N1C[C@@H]2ON=C(C(=O)O)[C@@H]2C1)C(=O)O (single isomer, unassigned)', 'pKi', 4.56),
  ('N[C@@H](CCC(=O)N1C[C@@H]2C(C(=O)O)=NO[C@@H]2C1)C(=O)O (single isomer, unassigned)', 'pKi', 4.68),
  ('N[C@@H](CCC(=O)N1C[C@@H]2ON=C(O)[C@@H]2C1)C(=O)O', 'pKi', 4.63),
  ('N[C@H](CCC(=O)N1C[C@@H]2C(C(=O)O)=NO[C@@H]2C1)C(=O)O', 'pKi', 4.24);

###

- ASSAY_OVERVIEW: Displacement of [3H]AMPA from AMPA receptor in Sprague-Dawley rat brain synaptic membrane
MEASUREMENT_TYPE: pIC50

INSERT INTO measurements (molecule, measured_number) VALUES
  ('N[C@H](CCC(=O)N1C[C@@H]2ON=C(C(=O)O)[C@@H]2C1)C(=O)O (single isomer, unassigned)', 4.18),
  ('N[C@@H](CCC(=O)N1C[C@@H]2C(O)=NO[C@@H]2C1)C(=O)O (single isomer, unassigned)', 4.36),
  ('N[C@@H](CCC(=O)N1C[C@@H]2ON=C(C(=O)O)[C@@H]2C1)C(=O)O', 4.34),
  ('N[C@@H](CCC(=O)N1C[C@@H]2C(C(=O)O)=NO[C@@H]2C1)C(=O)O (single isomer, unassigned)', 4.48),
  ('N[C@@H](CCC(=O)N1C[C@@H]2ON=C(O)[C@@H]2C1)C(=O)O', 4.37);

###

- ASSAY_OVERVIEW: Displacement of [3H]AMPA from AMPA receptor in Sprague-Dawley rat brain synaptic membrane
MEASUREMENT_TYPE: IC50 (µM)

Consider the reported IC50 for these compounds:
INSERT INTO results (compound, measurement_type, measured_number) VALUES
  ('N[C@@H](CCC(=O)N1C[C@@H]2ON=C(O)[C@@H]2C1)C(=O)O', 'IC50', 43),
  ('N[C@@H](CCC(=O)N1C[C@@H]2C(C(=O)O)=NO[C@@H]2C1)C(=O)O (single isomer, unassigned)', 'IC50', 34);

A: N[C@@H](CCC(=O)N1C[C@@H]2ON=C(C(=O)O)[C@@H]2C1)C(=O)O
B: N[C@H](CCC(=O)N1C[C@@H]2ON=C(C(=O)O)[C@@H]2C1)C(=O)O (single isomer, unassigned)
Incoming: Between the two listed entries A and B , which has its IC50 at the higher number? Let me know the label of the one you choose.
Outgoing: B

###

- ASSAY_OVERVIEW: Displacement of [3H]KA from KA receptor in Sprague-Dawley rat brain synaptic membrane
pIC50: −log10 of the molar value.
MEASUREMENT_TYPE: pIC50

INSERT INTO measurements (compound, measurement_type, measured_number) VALUES
  ('N[C@@H](CCC(=O)N1C[C@@H]2C(C(=O)O)=NO[C@@H]2C1)C(=O)O (single isomer, unassigned)', 'pIC50', 4.40),
  ('N[C@@H](CCC(=O)N1C[C@@H]2C(O)=NO[C@@H]2C1)C(=O)O (single isomer, unassigned)', 'pIC50', 4.23),
  ('N[C@@H](CCC(=O)N1C[C@@H]2ON=C(C(=O)O)[C@@H]2C1)C(=O)O', 'pIC50', 4.18),
  ('N[C@@H](CCC(=O)N1C[C@@H]2ON=C(O)[C@@H]2C1)C(=O)O', 'pIC50', 4.43),
  ('N[C@H](CCC(=O)N1C[C@@H]2ON=C(C(=O)O)[C@@H]2C1)C(=O)O (single isomer, unassigned)', 'pIC50', 4.25);

###

- ASSAYED_TARGET: Glutamate NMDA receptor
- ASSAY_OVERVIEW: Displacement of [3H]CGP39653 from NMDA receptor in Sprague-Dawley rat brain synaptic membrane
pKi: −log10 of the molar value.
MEASUREMENT_TYPE: pKi

P: N[C@@H](CCC(=O)N1C[C@@H]2C(O)=NO[C@@H]2C1)C(=O)O (single isomer, unassigned)
Q: N[C@@H](CCC(=O)N1C[C@@H]2C(C(=O)O)=NO[C@@H]2C1)C(=O)O (single isomer, unassigned)
Incoming: Record comparison, field pKi: mark the lower of P and Q . Let me know the label of the one you choose.
Outgoing: P
(P: 4.39, Q: 4.68)

###

Below, each entry is listed with its recorded pIC50.
- ASSAY_OVERVIEW: Displacement of [3H]AMPA from AMPA receptor in Sprague-Dawley rat brain synaptic membrane
pIC50: −log10 of the molar value.

Consider the reported pIC50 for these compounds:
INSERT INTO measurements (compound, result) VALUES
  ('N[C@H](CCC(=O)N1C[C@@H]2C(O)=NO[C@@H]2C1)C(=O)O', '< 4.00'),
  ('N[C@@H](CCC(=O)N1C[C@@H]2C(O)=NO[C@@H]2C1)C(=O)O (single isomer, unassigned)', 4.32),
  ('N[C@H](CCC(=O)N1C[C@@H]2ON=C(O)[C@@H]2C1)C(=O)O (single isomer, unassigned)', '< 4.00');

Incoming: Entry "N[C@H](CCC(=O)N1C[C@@H]2C(C(=O)O)=NO[C@@H]2C1)C(=O)O" : reported pIC50 = ?
Outgoing: < 4.00

###

Below, each entry is listed with its recorded pIC50.
- ASSAY_OVERVIEW: Displacement of [3H]KA from KA receptor in Sprague-Dawley rat brain synaptic membrane
pIC50: −log10 of the molar value.

INSERT INTO results (molecule, result) VALUES
  ('N[C@H](CCC(=O)N1C[C@@H]2ON=C(O)[C@@H]2C1)C(=O)O (single isomer, unassigned)', '< 4.00'),
  ('N[C@H](CCC(=O)N1C[C@@H]2C(O)=NO[C@@H]2C1)C(=O)O', '< 4.00');

Now take the following molecule into account.
Incoming: Entry "N[C@H](CCC(=O)N1C[C@@H]2C(C(=O)O)=NO[C@@H]2C1)C(=O)O" : reported pIC50 = ?
Outgoing: < 4.00

###

- ASSAYED_TARGET: Glutamate NMDA receptor
- ASSAY_OVERVIEW: Displacement of [3H]CGP39653 from NMDA receptor in Sprague-Dawley rat brain synaptic membrane
pKi: −log10 of the molar value.
MEASUREMENT_TYPE: pKi

INSERT INTO results (compound, measurement_type, measured_number) VALUES
  ('N[C@@H](CCC(=O)N1C[C@@H]2ON=C(O)[C@@H]2C1)C(=O)O', 'pKi', 4.60);

a: N[C@H](CCC(=O)N1C[C@@H]2C(C(=O)O)=NO[C@@H]2C1)C(=O)O
b: N[C@@H](CCC(=O)N1C[C@@H]2ON=C(C(=O)O)[C@@H]2C1)C(=O)O
Incoming: Record comparison, field pKi: mark the lower of a and b . Let me know the label of the one you choose.
Outgoing: a

###

Below, each entry is listed with its recorded Ki.
- ASSAYED_TARGET: Glutamate NMDA receptor
- ASSAY_OVERVIEW: Displacement of [3H]CGP39653 from NMDA receptor in Sprague-Dawley rat brain synaptic membrane

Consider the reported Ki for these molecules:
INSERT INTO measurements (molecule, measurement_type, result) VALUES
  ('N[C@H](CCC(=O)N1C[C@@H]2ON=C(C(=O)O)[C@@H]2C1)C(=O)O (single isomer, unassigned)', 'Ki', '28 µM'),
  ('N[C@H](CCC(=O)N1C[C@@H]2C(O)=NO[C@@H]2C1)C(=O)O', 'Ki', '> 100 µM');

Incoming: Entry N[C@H](CCC(=O)N1C[C@@H]2ON=C(O)[C@@H]2C1)C(=O)O (single isomer, unassigned) : reported Ki = ?
Outgoing: > 100 µM
